Target: human GABA A receptor α5β3γ2 (Homo sapiens (Human), UniProt P18507+P31644)
Test: [3H]flumazenil competition binding assay, human GABA A α5β3γ2 receptors expressed in HEK293 cells
Conditions: human receptor; displacement of [3H]flumazenil (0.5 nM); means of two determinations; read-out: hKi GABAAa5
pKi: −log10 of the molar value.
Label rule met for high-side pKi (at or above 8) and rule not met for low-side pKi (below it).

stdin: Say whether Cc1onc(-c2ccccc2)c1COc1ccc(C(=O)NCCCCCO)cn1 shows pKi of 8 or more.
stdout: rule met

stdin: Say whether Cc1onc(-c2ccc(F)cc2)c1COc1ccc(C(=O)O)cn1 shows pKi of 8 or more.
stdout: rule not met

stdin: Say whether O=C(NC(CO)CO)c1ccc(OCc2conc2-c2ccc(Cl)cc2)nc1 shows pKi of 8 or more.
stdout: rule met

stdin: Say whether Cc1onc(-c2ccccc2)c1COc1ccc(C(=O)N2CCC[C@H]2CO)cn1 shows pKi of 8 or more.
stdout: rule not met

stdin: Say whether O=C(NCC1(O)CC1)c1ccc(OCc2conc2-c2ccc(F)cc2)nc1 shows pKi of 8 or more.
stdout: rule not met

stdin: Say whether Cc1onc(-c2ccccc2)c1COc1ccc(C(=O)N[C@@H]2CCCC[C@@H]2O)cn1 (single isomer, unassigned) shows pKi of 8 or more.
stdout: rule met

stdin: Say whether Cc1onc(-c2ccc(Cl)cn2)c1COc1ccc(C(=O)NCC(F)(F)F)cn1 shows pKi of 8 or more.
stdout: rule met
